Tested on: IGROV1 ovarian
Assay: NCI-60 one-dose screen, 48 h
Settings: 10 µM unless noted
The panel holds about 83,000 compounds, 20% with a hit somewhere; the sample as a whole holds those more often. The source made the active and inactive calls. The calls were made as follows: active = growth percent below 10; inactive = the rest.
Use one of these outcomes when replying: 1 (yes) = active, 0 (no) = inactive

• CC(=O)Nc1cc2c3c(cccc3c1)-c1ccccc1-2 = 0 (no)
• CN1CCN(CCCOc2ccc3ncnc(Nc4ccc(OCc5cccc(F)c5)c(Cl)c4)c3c2)CC1 = 1 (yes)
• CCN(CC)CCNCC(=O)Oc1ccc(/C=C/C(=O)CC(=O)/C=C/c2ccc(OC(=O)CNCCN(CC)CC)c(OC)c2)cc1OC = 1 (yes)
• O=C(CC(C(=O)c1ccccc1)N1CCN(Cc2ccccc2)CC1)c1ccccc1 (stereo unspecified) = 0 (no)
• Oc1c(Cl)cc(Cl)c(Cl)c1Cc1c(O)c(Cl)cc(Cl)c1Cl = 0 (no)
• O=C1C=CC(=O)N1c1ccccc1N1C(=O)C=CC1=O = 0 (no)
• CCCCCc1c(C)[nH]c(/C=C2\N=C(c3ccc[nH]3)C=C2Oc2ccc(Cl)cc2)c1C = 0 (no)
• CC(C)N(Cc1ccccc1)c1c(S)ssc1=S = 1 (yes)
• CSc1nc2nc3c(nc2c(=O)n1C)C(=O)c1ccccc1C3=O = 1 (yes)
• CCCCCCCCCCOC(C)=O = 0 (no)

Qu. Returns: the outcome recorded for CC1CC=CCC1C1OCC(C)(C)CO1 (stereo unspecified) in this assay.
Ans. 0 (no)

Qu. How was "Cc1csc(C#Cc2cncc(O)c2)n1" classified in this test?
Ans. 1 (yes)

Qu. Fill in: this test's call for "COc1ccc(NC(=O)c2ccc(-c3ccccc3)cc2)c(C(N)=O)c1" is ___
Ans. 0 (no)
